# testSystem: Abl (Homo sapiens, UniProt P00519)
# Sequence (P00519 whole entry): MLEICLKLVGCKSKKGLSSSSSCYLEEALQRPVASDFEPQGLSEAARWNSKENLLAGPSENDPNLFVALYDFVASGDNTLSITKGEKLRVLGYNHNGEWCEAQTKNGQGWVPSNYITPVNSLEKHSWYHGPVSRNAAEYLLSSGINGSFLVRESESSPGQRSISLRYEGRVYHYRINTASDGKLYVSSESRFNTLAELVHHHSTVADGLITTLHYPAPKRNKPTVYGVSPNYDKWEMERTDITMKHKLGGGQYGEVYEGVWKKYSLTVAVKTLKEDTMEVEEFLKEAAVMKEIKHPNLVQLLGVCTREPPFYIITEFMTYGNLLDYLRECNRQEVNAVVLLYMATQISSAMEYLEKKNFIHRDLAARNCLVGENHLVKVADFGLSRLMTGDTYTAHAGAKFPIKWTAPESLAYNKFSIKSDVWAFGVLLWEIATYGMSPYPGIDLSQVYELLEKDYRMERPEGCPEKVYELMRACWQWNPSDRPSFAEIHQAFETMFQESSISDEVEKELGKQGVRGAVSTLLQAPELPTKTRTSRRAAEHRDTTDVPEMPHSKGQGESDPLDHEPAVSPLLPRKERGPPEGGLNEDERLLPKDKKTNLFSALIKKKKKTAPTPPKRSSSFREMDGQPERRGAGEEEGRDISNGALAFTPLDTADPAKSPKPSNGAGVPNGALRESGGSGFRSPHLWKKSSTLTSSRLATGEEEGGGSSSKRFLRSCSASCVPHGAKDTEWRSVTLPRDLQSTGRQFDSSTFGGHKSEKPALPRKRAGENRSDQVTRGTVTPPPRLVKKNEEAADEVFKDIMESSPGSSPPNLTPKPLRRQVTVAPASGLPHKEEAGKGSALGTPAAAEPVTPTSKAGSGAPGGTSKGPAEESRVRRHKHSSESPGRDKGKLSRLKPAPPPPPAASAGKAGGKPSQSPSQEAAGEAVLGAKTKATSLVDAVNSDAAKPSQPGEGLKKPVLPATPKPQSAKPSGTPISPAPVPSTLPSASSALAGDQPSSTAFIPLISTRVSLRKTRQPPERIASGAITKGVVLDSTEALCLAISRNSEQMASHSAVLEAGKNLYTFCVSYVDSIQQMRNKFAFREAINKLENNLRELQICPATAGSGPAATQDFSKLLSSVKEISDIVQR
# experimentSummary: Abl kinase assay, IMAP fluorescence polarization
# Type: biochemical
# conditionParameters: 50 or 100 μM ATP; average; read-out: Abl-AVERAGE Ki
Recorded Ki values for a group of compounds are listed next.

For orientation, consider the following solved cases.
| compound | Ki |
| --- | --- |
| Cc1cccc(F)c1N1Cc2cnc(N)nc2N([C@H]2CCNC2)C1=O [Example 65] | > 1 µM |
| Cc1cccc(Cl)c1N1Cc2cnc(N)cc2N(C2CN(C)C2)C1=O [Example 9] | > 1 µM |

Ask: Ki for Cc1cccc(F)c1N1Cc2cnc(N)nc2N(C2CN(C)C2)C1=O [Example 21] ?
Reply: > 10 µM

Ask: Ki for Cc1cccc(F)c1N1Cc2cnccc2N([C@H]2CCCCNC2)C1=O [Example 52] ?
Reply: > 10 µM

---

# testSystem: Src (Homo sapiens, UniProt P12931)
# Sequence (P12931 whole entry): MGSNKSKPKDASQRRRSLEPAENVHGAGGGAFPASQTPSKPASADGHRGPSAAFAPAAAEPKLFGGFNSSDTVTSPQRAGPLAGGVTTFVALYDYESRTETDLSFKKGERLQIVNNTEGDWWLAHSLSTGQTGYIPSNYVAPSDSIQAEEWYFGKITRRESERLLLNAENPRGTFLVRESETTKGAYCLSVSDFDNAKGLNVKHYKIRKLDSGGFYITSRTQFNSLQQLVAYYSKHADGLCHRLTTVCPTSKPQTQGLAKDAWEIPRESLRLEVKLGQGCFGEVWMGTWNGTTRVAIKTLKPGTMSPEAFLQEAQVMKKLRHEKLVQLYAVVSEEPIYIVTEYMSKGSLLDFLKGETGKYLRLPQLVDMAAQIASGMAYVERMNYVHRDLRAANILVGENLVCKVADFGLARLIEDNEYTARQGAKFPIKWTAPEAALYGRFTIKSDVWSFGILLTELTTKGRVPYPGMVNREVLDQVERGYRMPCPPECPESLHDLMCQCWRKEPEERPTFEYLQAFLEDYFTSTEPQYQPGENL
# experimentSummary: Src kinase assay, IMAP fluorescence polarization
# Type: biochemical
# conditionParameters: 50 or 100 μM ATP; average; read-out: Src-AVERAGE Ki
Field 'label' (enum: Y / N). Set to Y when Ki is strictly under 100 nM; else N.

Ask: Dear reviewer, please state whether CNC1CCCC(N2C(=O)N(c3c(C)cccc3F)Cc3cnc(N)cc32)C1 (stereo not drawn) has Ki strictly beneath 100 nM.
Reply: Y

Ask: Dear reviewer, please state whether Cc1cccc(F)c1N1Cc2cnc(N)nc2N([C@@H]2CCCCNC2)C1=O has Ki strictly beneath 100 nM.
Reply: Y

Ask: Dear reviewer, please state whether CNc1cc2c(cn1)CN(c1c(C)cccc1F)C(=O)N2[C@H]1CC[C@@H](N(C)C)CC1 has Ki strictly beneath 100 nM.
Reply: N

Ask: Dear reviewer, please state whether Cc1cccc(F)c1N1Cc2cnc(N)nc2N([C@@H]2CCCN(C)CC2)C1=O has Ki strictly beneath 100 nM.
Reply: N

Ask: Dear reviewer, please state whether Cc1cccc(F)c1N1Cc2cnc(N)cc2N([C@H]2CC[C@H](N(C)C)CC2)C1=O has Ki strictly beneath 100 nM.
Reply: Y

Ask: Dear reviewer, please state whether Cc1cccc(F)c1N1Cc2cnc(N)cc2N(CC2CCNCC2)C1=O has Ki strictly beneath 100 nM.
Reply: Y

Ask: Dear reviewer, please state whether CN[C@H]1CC[C@H](N2C(=O)N(c3c(C)cccc3F)Cc3cnc(N)cc32)CC1 has Ki strictly beneath 100 nM.
Reply: Y

Ask: Dear reviewer, please state whether Cc1cccc(F)c1N1Cc2cnc(N)nc2N([C@H]2CCNC2)C1=O has Ki strictly beneath 100 nM.
Reply: N

Ask: Dear reviewer, please state whether Cc1cccc(F)c1N1Cc2cnc(N)cc2N([C@H]2CCCN(C)CC2)C1=O has Ki strictly beneath 100 nM.
Reply: N

Each recorded value in this set is attributed to patent US12509457B2.
